- experiment: Ex vivo transcorneal permeation through isolated rabbit cornea
- Assay type: in vitro ADME
- condition.summary: New Zealand albino; isolated rabbit cornea; donor RBB pH 7.6 with 0.02% w/w PCA and 0.04% w/w hyaluronic acid; 32° C.; read-out: PCA corneal permeability
assay.metric: Papp at 240 min, 0.02 % w/w (×10⁻⁶ cm/s)
Write it as a number; the unit ×10⁻⁶ cm/s goes unstated.

## Task Would you mind telling me what Papp at 240 min, 0.02 % w/w value was observed for O=C1CCC(C(=O)O)N1 (stereo not shown) [PCA, Pyrrolidone carboxylic acid] ?
## Result 3.95
